Molecular target: CaM (Bos taurus)
Construct: made in house; host or cells: E. coli BL21 (DE3)
Assay: Competition pull-down with native ligand TRPV1-Ct15
Type: binding, bovine
Conditions: H14 library; competitor peptide 200 µM; read-out: Surface mapping KD (apparent), competition
# Kd listing for each entry below
Please state the figure in µM; there is no need to write the unit.

Answered examples (3):
CSCC[C@@H](CC(=O)N[C@H]1CCCC[C@@H]1C(=O)N[C@H]1CCCC[C@@H]1C(=O)N[C@H](CC(=O)N[C@H]1CCCC[C@@H]1C(N)=O)Cc1ccc(O)cc1)NC(=O)[C@H]1CCCC[C@@H]1N : 402
NCCCC[C@@H](CC(=O)N[C@H]1CCCC[C@@H]1C(N)=O)NC(=O)[C@H]1CCCC[C@@H]1NC(=O)[C@H]1CCCC[C@@H]1NC(=O)C[C@H](Cc1c[nH]c2ccccc12)NC(=O)[C@H]1CCCC[C@@H]1N : 201
NC(=O)CC[C@@H](CC(=O)N[C@H]1CCCC[C@@H]1C(=O)N[C@H]1CCCC[C@@H]1C(=O)N[C@H](CC(=O)N[C@H]1CCCC[C@@H]1C(N)=O)Cc1c[nH]c2ccccc12)NC(=O)[C@H]1CCCC[C@@H]1N : 168

Prompt: Give recorded Kd. C[C@@H](O)[C@@H](CC(=O)N[C@H]1CCCC[C@@H]1C(=O)N[C@H]1CCCC[C@@H]1C(=O)N[C@@H](CCCNC(=N)N)CC(=O)N[C@H]1CCCC[C@@H]1C(N)=O)NC(=O)[C@H]1CCCC[C@@H]1N
Completion: 338

Prompt: Supply Kd value. Item: CC[C@H](C)[C@@H](CC(=O)N[C@H]1CCCC[C@@H]1C(N)=O)NC(=O)[C@H]1CCCC[C@@H]1NC(=O)[C@H]1CCCC[C@@H]1NC(=O)C[C@H](Cc1ccccc1)NC(=O)[C@H]1CCCC[C@@H]1N
Completion: 121

Prompt: // fetch Kd given entry NC(=O)CC[C@@H](CC(=O)N[C@H]1CCCC[C@@H]1C(=O)N[C@H]1CCCC[C@@H]1C(=O)N[C@@H](CC(=O)O)CC(=O)N[C@H]1CCCC[C@@H]1C(N)=O)NC(=O)[C@H]1CCCC[C@@H]1N
Completion: 349

Prompt: Identify measured Kd corresponding to CSCC[C@@H](CC(=O)N[C@H]1CCCC[C@@H]1C(=O)N[C@H]1CCCC[C@@H]1C(=O)N[C@@H](CC(=O)O)CC(=O)N[C@H]1CCCC[C@@H]1C(N)=O)NC(=O)[C@H]1CCCC[C@@H]1N
Completion: 278

Prompt: Given the molecule C[C@@H](O)[C@@H](CC(=O)N[C@H]1CCCC[C@@H]1C(N)=O)NC(=O)[C@H]1CCCC[C@@H]1NC(=O)[C@H]1CCCC[C@@H]1NC(=O)C[C@H](CCC(N)=O)NC(=O)[C@H]1CCCC[C@@H]1N , write its reported Kd.
Completion: 266

###

Target: S100A4 (Homo sapiens, UniProt P26447)
Construct: made in house; host or cells: Escherichia coli BL21(DE3)
Sequence (P26447 whole entry): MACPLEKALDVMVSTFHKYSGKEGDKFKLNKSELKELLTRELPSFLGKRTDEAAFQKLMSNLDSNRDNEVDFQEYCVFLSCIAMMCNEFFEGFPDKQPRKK
Assay: Pull-down assay with immobilized protein and LSM libraries
Format: binding
Conditions: H12 library; 1:1 binding assumed; read-out: Surface mapping KD (apparent)
Procedure: Pull-down assays with immobilized test proteins and foldameric LSM libraries were carried out. Proteins were equilibrated with LSM probes, and equilibrium bound fractions (FB) were determined from the unbound fractions measured by HPLC-MS methods. Hits were corrected with background binding of the resin. […] MS data analysis. […] Using these processing setups, all raw data files were reprocessed together and analyzed. […]
Quantity name: Kd (µM)
All answers are understood in µM, so give the number only.

Check out these entries, answers already filled in.
CC[C@H](C)[C@@H](CC(=O)N[C@H]1CCC[C@@H]1C(=O)N[C@H]1CCC[C@@H]1C(=O)N[C@H](CC(=O)N[C@H]1CCC[C@@H]1C(=O)N[C@H]1CCC[C@@H]1C(N)=O)Cc1ccccc1)NC(=O)[C@H]1CCC[C@@H]1NC(=O)[C@H]1CCC[C@@H]1N : 32
CC[C@H](C)[C@@H](CC(=O)N[C@H]1CCC[C@@H]1C(=O)N[C@H]1CCC[C@@H]1C(=O)N[C@H](CC(=O)N[C@H]1CCC[C@@H]1C(=O)N[C@H]1CCC[C@@H]1C(N)=O)Cc1c[nH]c2ccccc12)NC(=O)[C@H]1CCC[C@@H]1NC(=O)[C@H]1CCC[C@@H]1N : 28
NCCCC[C@@H](CC(=O)N[C@H]1CCC[C@@H]1C(=O)N[C@H]1CCC[C@@H]1C(=O)N[C@H](CC(=O)N[C@H]1CCC[C@@H]1C(=O)N[C@H]1CCC[C@@H]1C(N)=O)Cc1c[nH]c2ccccc12)NC(=O)[C@H]1CCC[C@@H]1NC(=O)[C@H]1CCC[C@@H]1N : 456
N=C(N)NCCC[C@@H](CC(=O)N[C@H]1CCC[C@@H]1C(=O)N[C@H]1CCC[C@@H]1C(N)=O)NC(=O)[C@H]1CCC[C@@H]1NC(=O)[C@H]1CCC[C@@H]1NC(=O)C[C@H](CC(N)=O)NC(=O)[C@H]1CCC[C@@H]1NC(=O)[C@H]1CCC[C@@H]1N : 245
N=C(N)NCCC[C@@H](CC(=O)N[C@H]1CCC[C@@H]1C(=O)N[C@H]1CCC[C@@H]1C(N)=O)NC(=O)[C@H]1CCC[C@@H]1NC(=O)[C@H]1CCC[C@@H]1NC(=O)C[C@H](CCCNC(=N)N)NC(=O)[C@H]1CCC[C@@H]1NC(=O)[C@H]1CCC[C@@H]1N : 210
CC(C)C[C@@H](CC(=O)N[C@H]1CCC[C@@H]1C(=O)N[C@H]1CCC[C@@H]1C(N)=O)NC(=O)[C@H]1CCC[C@@H]1NC(=O)[C@H]1CCC[C@@H]1NC(=O)C[C@H](CC(=O)O)NC(=O)[C@H]1CCC[C@@H]1NC(=O)[C@H]1CCC[C@@H]1N : 449
CC(C)C[C@@H](CC(=O)N[C@H]1CCC[C@@H]1C(=O)N[C@H]1CCC[C@@H]1C(N)=O)NC(=O)[C@H]1CCC[C@@H]1NC(=O)[C@H]1CCC[C@@H]1NC(=O)C[C@H](Cc1ccc(O)cc1)NC(=O)[C@H]1CCC[C@@H]1NC(=O)[C@H]1CCC[C@@H]1N : 180

Continue with the molecule presented below.
Prompt: Item CC[C@H](C)[C@@H](CC(=O)N[C@H]1CCC[C@@H]1C(=O)N[C@H]1CCC[C@@H]1C(N)=O)NC(=O)[C@H]1CCC[C@@H]1NC(=O)[C@H]1CCC[C@@H]1NC(=O)C[C@@H](NC(=O)[C@H]1CCC[C@@H]1NC(=O)[C@H]1CCC[C@@H]1N)C(C)C : provide Kd
Completion: 190
